assay: Tanguay_ZF_120hpf_ActivityScore_legacy: (Legacy) Oregon State University Tanguay Lab 120 Hour Post-fertilization zebrafish Assay Score for Activity (AID 2283742)
Activity calls are given as the source filed them. How the source made its calls: active means hit-call score of the fitted dose curve at least 0.9, where 1 is the maximum; inconclusive means response in the unintended direction; inactive means score below 0.9.
Field 'call' accepts active, inactive

| compound | class |
| --- | --- |
| CCN(CC)CCOc1ccc(C(=C(Cl)c2ccccc2)c2ccccc2)cc1 | active |
| CCCCc1nc2cccnc2n1Cc1ccc(-c2ccccc2-c2nnn[nH]2)cc1 | inactive |
| CCCCC(CC)COP(=O)(OCC(CC)CCCC)OCC(CC)CCCC (centres undefined) | inactive |
| CC(COCC(C)OC(=O)c1ccccc1)OC(=O)c1ccccc1 (centres undefined) | inactive |
| CC(=O)O | inactive |
| Oc1ccccc1O | inactive |
| c1ccc2occc2c1 | inactive |
| CC(=O)OC1CC(C)OC(C)O1 (centres undefined) | inactive |

**Q:** Could you check what this test reported for "O=C(O)c1[nH]n(-c2ccc(S(=O)(=O)O)cc2)c(=O)c1N=Nc1ccc(S(=O)(=O)O)cc1" ?
**A:** inactive

**Q:** Identify the outcome logged in this assay for the compound shown: "O=NO"
**A:** inactive

**Q:** Test call for this compound, please: "CCCCCCCC(=O)OC"
**A:** inactive

**Q:** For "O=C(N[C@@H](c1ccccc1)[C@@H]1CCCCN1)c1cccc(C(F)(F)F)c1Cl" , which call appears in the assay record?
**A:** active

**Q:** Hi team, can someone confirm the assay call for "O=C(O)c1cccnc1" ?
**A:** inactive

**Q:** What did the test return for "Nc1nc(=S)c2[nH]cnc2[nH]1" ?
**A:** inactive

---

tested on: 5-hydroxytryptamine receptor 2C (pig); test: NVS_GPCR_p5HT2C: NovaScreen (NVS) G Protein-Coupled Receptor Assay for pig Serotonin, 5-Hydroxytryptamine Receptor 2C (5HT2C) (AID 2283288)
Results filed as inconclusive are left out. Calls of active or inactive are those of the source. Rule for the calls: active = hit-call score of the fitted dose curve at least 0.9, where 1 is the maximum; inconclusive = response in the unintended direction; inactive = score below 0.9.
Would you mind answering with one of these outcomes? active, inactive

| molecule smiles | tested target | class |
| --- | --- | --- |
| CCc1nc(N)nc(N)c1-c1ccc(Cl)cc1 | 5-hydroxytryptamine receptor 2C (pig) | active |
| S=c1[nH]c2ccccc2s1 | 5-hydroxytryptamine receptor 2C (pig) | inactive |
| CN(C)C(=O)NC1(c2ccccc2)CCN(CC[C@@]2(c3ccc(F)c(F)c3)CN(C(=O)c3ccccc3)CCO2)CC1 | 5-hydroxytryptamine receptor 2C (pig) | active |
| C=CCc1ccc(OC)c(OC)c1 | 5-hydroxytryptamine receptor 2C (pig) | inactive |
| CSc1ccc(Oc2ccc(S(N)(=O)=O)cc2CN(C)C)cc1C | 5-hydroxytryptamine receptor 2C (pig) | active |

Attention now shifts to the item below.
**Q:** Outcome logged for "COC(=O)[C@H]1[C@H]2C[C@@H]3c4[nH]c5cc(OC)ccc5c4CCN3C[C@H]2C[C@@H](OC(=O)c2cc(OC)c(OC)c(OC)c2)[C@@H]1OC" in this assay:
**A:** inactive

---

test: ATG_PXRE_CIS: Attagene CIS-FACTORIAL HepG2 Assay for human Pregnane X Receptor Element (PXRE) (AID 2282957); conditions: HepG2 Attagene CIS-FACTORIAL PXRE reporter, mRNA; actives raise or lower the signal
Active and inactive are the calls of the source. Rule for the calls: active = hit-call score of the fitted dose curve at least 0.9, where 1 is the maximum; inactive = score below 0.9.
Field 'call' accepts label 1 = active, label 0 = inactive

| molecule smiles | class |
| --- | --- |
| Nc1nc(=S)c2[nH]cnc2[nH]1 | label 1 |
| CCCCOC(=O)CCCCC(=O)OCCCC | label 0 |

In the following, a different compound is considered.
**Q:** Outcome? "CC(C)c1cccc(C(C)C)c1"
**A:** label 0
